Assignment: determine reported MDL50 for the given compounds.
System: BGM cells
Experiment: Cytotoxicity evaluation on mammalian cells (MTT)
Type: cell-based
Conditions: 24 h, mean of three experiments
Description: Cytotoxicity evaluation on mammalian cells - BGM cells (originally acquired from ATCC (American Type Culture Collection), Manassas, VA, USA by the Federal University of Minas Gerais, Brazil, and donated by Dr Antoniana Krettli - Federal University of Minas Gerais) were cultured in 75 cm^2 sterile ﬂasks containing RPMI 1640 medium supplemented with 10% foetal bovine serum (FBS) at a concentration of 5 x 10^3 cells per millilitre in a 5% CO2 atmosphere at 37 °C. […]

// query MDL50 value for entry COc1ccccc1C1NC(=O)NC2=C1C(=O)N(CCc1ccccc1)C2 (stereo not drawn) [2e] 56 ± 1.83 µM

May I ask what MDL50 has been recorded for CCOC(=O)C1=C(CCl)NC(=O)NC1c1cc(OC)c(OC)c(OC)c1 (stereo not drawn) [1g] ? 21.7 ± 1.15 µM

Returns the measured MDL50 for the input compound. Input: O=C1NC2=C(C(=O)N(CCc3ccccc3)C2)C(c2cccc(Br)c2)N1 (stereo not drawn) [2c] 6.9 ± 0.97 µM

MDL50 lookup needed for COc1ccc(C2NC(=O)NC3=C2C(=O)N(Cc2ccccc2)C3)c(OC)c1 (stereo not drawn) [3i] , thanks. > 100 µM

Please report the recorded MDL50 for O=C1NC2=C(C(=O)N(CCc3ccccc3)C2)C(c2ccccc2)N1 (stereo not drawn) [2a] . > 100 µM

Quick one: MDL50 for O=C1NC2=C(C(=O)N(Cc3ccccc3)C2)C(c2ccc(Br)cc2)N1 (stereo not drawn) [3f] ? > 100 µM

* * *

Answer each item with its documented MDL50.
tested on: BGM cells; experiment: Cytotoxicity evaluation on mammalian cells (MTT); type: cell-based; conditions: 24 h, mean of three experiments
The figure you give is taken to be in µM; do not add the unit.

Tell me the measured MDL50 of CCOC(=O)C1=C(CCl)NC(=O)NC1c1ccc(OC)c(OC)c1 (centres unmarked) , please. 24.5

What value of MDL50 has been reported for the following compound? CCOC(=O)C1=C(CCl)NC(=O)NC1c1ccc(OC)cc1OC (centres unmarked) 9.7

Record request: MDL50 value, item COc1cc(C2NC(=O)NC3=C2C(=O)N(CCc2ccccc2)C3)cc(OC)c1OC (centres unmarked) 6.2

Using the record for CCOC(=O)C1=C(CCl)NC(=O)NC1c1ccccc1 (centres unmarked) , report its MDL50. 24.6

Query (compound): CCOC(=O)C1=C(CCl)NC(=O)NC1c1ccccc1OC (centres unmarked) ; field requested: MDL50 23.8

Look at this compound and give its reported MDL50. CCOC(=O)C1=C(CCl)NC(=O)NC1c1ccc(Cl)cc1 (centres unmarked) 2.5

Any idea what its MDL50 is? The compound is COc1ccc(C2NC(=O)NC3=C2C(=O)N(CCc2ccccc2)C3)cc1 (centres unmarked) 24.6

Which MDL50 is listed for O=C1NC2=C(C(=O)N(CCc3ccccc3)C2)C(c2ccc(Br)cc2)N1 (centres unmarked) ? 18.6

Which value of MDL50 has been reported for O=C1NC2=C(C(=O)N(Cc3ccccc3)C2)C(c2ccc(Cl)cc2)N1 (centres unmarked) in the records? 86

I have this compound here, CCOC(=O)C1=C(CCl)NC(=O)NC1c1ccc([N+](=O)[O-])cc1 (centres unmarked) , and I need its recorded MDL50. 26.2

What measured MDL50 goes with CCOC(=O)C1=C(CCl)NC(=O)NC1c1cccc(Br)c1 (centres unmarked) ? 21.7

Can you share its MDL50? I mean this compound: O=C1NC2=C(C(=O)N(CCc3ccccc3)C2)C(c2ccc([N+](=O)[O-])cc2)N1 (centres unmarked) 8.9

* * *

assay: Hemolysis assay; format: cell-based; conditions: erythrocyte suspension (1% haematocrit), at 1000 μM, 37 °C, read-out: haemolysis
observed_property: hemolysis at 30 min, 1000 µM (%)
The reply should be a number in %, with the unit left off.

Which hemolysis at 30 min, 1000 µM is listed for O=C1NC2=C(C(=O)N(CCc3ccccc3)C2)C(c2cccc(Br)c2)N1 (centres unmarked) [2c] ? 12.3

Fill in the blank: the reported hemolysis at 30 min, 1000 µM of CCOC(=O)C1=C(CCl)NC(=O)NC1c1ccc(Br)cc1 (centres unmarked) [1f] is ____. 0.95

Quick one: hemolysis at 30 min, 1000 µM for CCOC(=O)C1=C(CCl)NC(=O)NC1c1ccc(Cl)cc1 (centres unmarked) [1d] ? 3.6

// returns reported hemolysis at 30 min, 1000 µM for input O=C1NC2=C(C(=O)N(CCc3ccccc3)C2)C(c2ccc(Br)cc2)N1 (centres unmarked) [2f] 22.6

Item under review: COc1ccc(C2NC(=O)NC3=C2C(=O)N(CCc2ccccc2)C3)cc1 (centres unmarked) [2b] . Reported hemolysis at 30 min, 1000 µM? 21.7
